Each record here notes measured viscosity.
Settings: 298.15 K; 101.33 kPa; Liquid
Quantity name: viscosity (mPa·s)

1) CCCC[n+]1ccc(C)cc1.O=S(=O)([N-]S(=O)(=O)C(F)(F)F)C(F)(F)F : 56.33
2) CCCC[n+]1ccccc1.O=S(=O)([N-]S(=O)(=O)C(F)(F)F)C(F)(F)F [1-butylpyridinium bis[(trifluoromethyl)sulfonyl]imide] : 61.25
3) CCCCCC[n+]1ccccc1.O=S(=O)([N-]S(=O)(=O)C(F)(F)F)C(F)(F)F [1-hexylpyridinium bis(trifluromethylsulfonyl)imide] : 96.21
4) CCCCCCCC[n+]1cccc(C)c1 : 115.55
5) CCC[n+]1cccc(C)c1.O=S(=O)([N-]S(=O)(=O)C(F)(F)F)C(F)(F)F : 54.94
